- System: Guinea-pig Papillary Muscle
- experiment.summary: Guinea-pig Papillary Muscle: ventricular action potential
- Format: cell-based, Male Albino Charles River guinea-pigs
- condition.summary: Cavia porcellus, 0.5 h; 36° C., 60 beats per minute, 30 minutes of perfusion per concentration; read-out: Duration of the action potential: IC50 (50 per cent reduction in the duration of the AP)
pIC50: −log10 of the molar value.
# Lookup of reported pIC50 keyed by entry

compound: CC1(C)Oc2ccc(C#N)cc2[C@@H](n2nc(O)ccc2=O)[C@@H]1O (relative stereo)
pIC50: 5.40
//
compound: CC1(C)Oc2ccc(C#N)cc2[C@@H](N2CCCC2=O)[C@@H]1O (relative stereo) [Product A, reference compound]
pIC50: 4.80
//
compound: CC1(C)Oc2ccc(C#N)cc2[C@@H](n2ccc(O)cc2=O)[C@@H]1O (relative stereo)
pIC50: 5.57
//
compound: CC1(C)Oc2ccc(C#N)cc2[C@@H](n2ccccc2=O)[C@@H]1O (relative stereo)
pIC50: 4.70
